Each recorded value in this set is attributed to ChEMBL document CHEMBL2384924.

- experimentalTarget: Cannabinoid receptor 1 (Homo sapiens)
- Sequence (P21554 whole entry): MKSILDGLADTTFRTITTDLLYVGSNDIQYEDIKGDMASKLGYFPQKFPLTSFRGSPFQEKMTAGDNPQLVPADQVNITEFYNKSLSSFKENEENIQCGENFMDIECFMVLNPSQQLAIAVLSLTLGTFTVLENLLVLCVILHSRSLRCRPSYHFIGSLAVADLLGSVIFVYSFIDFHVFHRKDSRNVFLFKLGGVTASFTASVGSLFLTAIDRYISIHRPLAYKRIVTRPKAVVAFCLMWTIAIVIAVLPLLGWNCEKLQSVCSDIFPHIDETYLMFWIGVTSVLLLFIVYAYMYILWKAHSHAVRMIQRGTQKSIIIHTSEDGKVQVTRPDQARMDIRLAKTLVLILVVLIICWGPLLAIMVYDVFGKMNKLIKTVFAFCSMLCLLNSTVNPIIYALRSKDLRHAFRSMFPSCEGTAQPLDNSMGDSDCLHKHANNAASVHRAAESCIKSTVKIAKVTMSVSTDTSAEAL
- testDescription: Displacement of [3H]-CP55,940 from human CB1 receptor transfected in CHOK1 cells at 10 uM
- Type: cell-based
- conditionParameters: CHO-K1
quantity: Activity (%)
Please state the figure in %; there is no need to write the unit.

Use these answered entries as a reference point.
CCCCCCCC(C)(C)c1cc(OC)c2cc(Cc3ccccc3OC)c(=O)oc2c1 = 51
COc1ccccc1Cc1cc2c(C)ccc(C)c2oc1=O = 16
Cc1cc2c(C(C)C)ccc(C)c2oc1=O = 26

Field request: Activity | item: `Cc1ccc(C(C)C)c2cc(Cc3ccccc3O)c(=O)oc12`
31

###

- experimentalTarget: N-arachidonyl glycine receptor (Homo sapiens) (UniProt Q14330)
- Sequence (whole entry): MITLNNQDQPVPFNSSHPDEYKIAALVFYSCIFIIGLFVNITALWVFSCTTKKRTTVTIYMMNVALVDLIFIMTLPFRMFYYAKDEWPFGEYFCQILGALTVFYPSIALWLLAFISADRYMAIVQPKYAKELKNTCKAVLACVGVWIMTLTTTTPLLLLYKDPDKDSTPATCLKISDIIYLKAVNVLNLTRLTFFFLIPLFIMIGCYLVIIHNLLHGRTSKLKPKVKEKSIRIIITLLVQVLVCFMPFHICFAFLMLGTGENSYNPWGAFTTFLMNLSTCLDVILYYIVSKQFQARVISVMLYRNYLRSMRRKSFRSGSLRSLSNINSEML
- testDescription: Antagonist activity at human GPR18 transfected in CHO cells assessed as delta9-THC-induced beta-arrestin recruitment at 10 uM incubated 60 mins prior to delta9-THC addition by beta-arrestin translocation assay
- Assay type: cell-based
- Design: scale not given: the % may be the effect or the level left
Below is a list of entries, each paired with its recorded Activity value.
Value expressed in %; do not type the unit.

Answered examples (2):
CCCCCCCC(C)(C)c1cc(OC)c2cc(Cc3ccccc3OC)c(=O)oc2c1 = 33
CCCCCc1cc(OC)c2cc(Cc3cccc(OC)c3)c(=O)oc2c1 = 33

Need Activity of `Cc1ccc(C(C)C)c2cc(Cc3ccccc3)c(=O)oc12` , thanks.
12

Try `Cc1c(O)c(C)c2cc(Cc3ccccc3)c(=O)oc2c1C` next.
16

Moving on to `COc1c(C)c(C)c2oc(=O)c(Cc3ccc(F)cc3)cc2c1C`
32

Another: `CCCCCc1cc(OC)c2cc(Cc3ccc(Cl)cc3)c(=O)oc2c1`
50

Please give the result for `CCCCC1(c2cc(O)c3cc(Cc4ccccc4O)c(=O)oc3c2)CCCCC1` too.
59

###

Catalogue of molecules with associated pKi
- experimentalTarget: UniProt:P21554
- testDescription: Displacement of [3H]-CP55,940 from human CB1 receptor transfected in CHOK1 cells
pKi: −log10 of the molar value.

Worked set:
COc1ccccc1Cc1cc2c(C)c(OC)c(C)c(C)c2oc1=O = 5.44
COc1cc(C)cc2oc(=O)c(Cc3ccccc3)cc12 = ≤ 5.00

Entry `COc1c(C)c(C)c2oc(=O)c(Cc3ccccc3)cc2c1C` has what pKi?
≤ 5.00

One more molecule: `Cc1ccccc1Cc1cc2c(C)c(O)c(C)c(C)c2oc1=O`
≤ 5.00

Queued: `COc1ccccc1Cc1cc2c(C)ccc(C)c2oc1=O`
< 5.00

Now this one: `COc1c(C)c(C)c2oc(=O)c(Cc3ccc(F)cc3)cc2c1C`
5.00

###

- experimentalTarget: G-protein coupled receptor 55 (Homo sapiens, UniProt Q9Y2T6)
- Sequence (Q9Y2T6 whole entry): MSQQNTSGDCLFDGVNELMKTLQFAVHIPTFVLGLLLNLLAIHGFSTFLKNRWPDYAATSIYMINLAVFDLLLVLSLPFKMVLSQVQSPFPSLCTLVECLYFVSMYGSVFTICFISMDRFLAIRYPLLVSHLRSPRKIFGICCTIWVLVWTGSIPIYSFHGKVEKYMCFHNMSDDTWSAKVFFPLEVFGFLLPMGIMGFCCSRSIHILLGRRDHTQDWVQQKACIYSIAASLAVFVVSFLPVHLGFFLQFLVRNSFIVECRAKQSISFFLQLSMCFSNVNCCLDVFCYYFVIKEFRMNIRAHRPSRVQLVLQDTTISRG
- testDescription: Antagonist activity at human GPR55 transfected in CHO cells assessed as inhibition of LPI-induced beta-arrestin recruitment at 10 uM incubated 60 mins prior to LPI addition by beta-arrestin translocation assay
- Assay type: cell-based
- Set-up: scale not given: the % may be the effect or the level left
quantity: Activity (%)
All answers are understood in %, so give the number only.

CCCCCc1cc(OC)c2cc(Cc3cc(C)c(OC)c(C)c3)c(=O)oc2c1 = 44
Cc1ccc(Cc2cc3c(O)cc(C)cc3oc2=O)cc1 = 42
COc1cccc(Cc2cc3c(OC)cc(CO)cc3oc2=O)c1 = 13

Would you kindly share the measured Activity for `COc1cc(Br)cc2cc(C)c(=O)oc12` ?
16

And the next one, `COc1ccc2oc(=O)c(C)cc2c1` ?
13

Entry to check: `Cc1cc(O)c2cc(Cc3ccccc3C)c(=O)oc2c1`
45

###

- experimentalTarget: G-protein coupled receptor 55 (Homo sapiens, UniProt Q9Y2T6)
- testDescription: Antagonist activity at human GPR55 transfected in CHO cells assessed as inhibition of LPI-induced beta-arrestin recruitment incubated 60 mins prior to LPI addition by beta-arrestin translocation assay
quantity: pIC50
Field pIC50 (float): negative decimal logarithm of the concentration in molar.

Some entries whose results are on file:
CCCCCCC(C)(C)c1cc(O)c2cc(Cc3ccccc3O)c(=O)oc2c1 = 6.58
CCCCCCC(C)(C)c1cc(OC)c2cc(Cc3ccccc3)c(=O)oc2c1 = 5.00

Give the reported pIC50 for `COc1ccc2cc(Cc3ccccc3)c(=O)oc2c1` (system: G-protein coupled receptor 55 (Homo sapiens, UniProt Q9Y2T6)).
5.00

###

compounds and their reported Activity
- experimentalTarget: UniProt Q9Y2T6
- testDescription: Antagonist activity at human GPR55 transfected in CHO cells assessed as inhibition of LPI-induced beta-arrestin recruitment at 10 uM incubated 60 mins prior to LPI addition by beta-arrestin translocation assay
- Assay type: cell-based
- Set-up: scale not given: the % may be the effect or the level left
Output spec: scalar in %, unitless text.

The following compounds have reported results that may help.
CCCCCc1cc(OC)c2cc(Cc3cccc(Cl)c3)c(=O)oc2c1 = 36
CCCCCc1cc(OC)c2cc(Cc3cccc(C)c3)c(=O)oc2c1 = 27
COc1ccc2cc(C)c(=O)oc2c1 = 25

# get_value(readout='Activity', item= `COc1cccc(Cc2cc3c(OC)cccc3oc2=O)c1` )
54

Follow-up entry: `CCCCCc1cc(O)c2cc(Cc3cccc(C)c3)c(=O)oc2c1`
19

###

Below is a list of entries, each paired with its recorded log10 of Ki value.
- experimentalTarget: Cannabinoid receptor 2 (Homo sapiens, UniProt P34972)
- Sequence (P34972 whole entry): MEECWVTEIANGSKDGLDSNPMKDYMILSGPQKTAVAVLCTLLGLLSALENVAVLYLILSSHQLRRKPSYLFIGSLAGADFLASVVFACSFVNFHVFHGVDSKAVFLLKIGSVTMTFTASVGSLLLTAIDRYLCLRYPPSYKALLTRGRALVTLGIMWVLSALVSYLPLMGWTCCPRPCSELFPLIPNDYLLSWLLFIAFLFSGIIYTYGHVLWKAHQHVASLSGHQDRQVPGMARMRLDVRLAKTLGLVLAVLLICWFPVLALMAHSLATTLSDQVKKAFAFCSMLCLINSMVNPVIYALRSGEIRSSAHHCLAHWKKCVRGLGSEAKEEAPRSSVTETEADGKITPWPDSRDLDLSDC
- testDescription: Displacement of [3H]-CP55,940 from human CB2 receptor transfected in CHOK1 cells
Each number you see is log10 of Ki, and the unit inside the log is nM.

Cc1c(O)c(C)c2cc(Cc3ccccc3)c(=O)oc2c1C = 3.53
COc1c(C)c(C)c2oc(=O)c(Cc3ccccc3C)cc2c1C = 2.82
CCCCCc1cc(OC)c2cc(Cc3ccc(Br)cc3)c(=O)oc2c1 = 2.76
CCCCCc1cc(OC)c2cc(Cc3ccc(Cl)cc3)c(=O)oc2c1 = 2.76

# log10 of Ki lookup, item `COc1c(C)c(C)c2oc(=O)c(Cc3ccccc3)cc2c1C`
3.25

Input `Cc1ccccc1Cc1cc2c(C)c(O)c(C)c(C)c2oc1=O`
3.19

Quick one: `COc1ccccc1Cc1cc2c(C)c(OC)c(C)c(C)c2oc1=O`
2.53

Also `Cc1c(O)c(C)c2cc(Cc3ccc(F)cc3)c(=O)oc2c1C` , if possible.
2.65

###

- experimentalTarget: UniProtKB Q9Y2T6
- testDescription: Antagonist activity at human GPR55 transfected in CHO cells assessed as inhibition of LPI-induced beta-arrestin recruitment at 10 uM incubated 60 mins prior to LPI addition by beta-arrestin translocation assay
- Type: cell-based
- Parameters: scale not given: the % may be the effect or the level left
quantity: Activity (%)
Give a bare numeral; the unit % is implied.

O=c1oc2cccc(O)c2cc1Cc1ccccc1 = 6
COc1cccc2cc(Cc3ccccc3)c(=O)oc12 = 5
CCCCCc1cc(O)c2cc(Cc3cccc(Cl)c3)c(=O)oc2c1 = 30
COc1ccc2cc(Cc3ccccc3)c(=O)oc2c1 = 53
CCCCCc1cc(OC)c2cc(Cc3ccc(F)cc3)c(=O)oc2c1 = 57

Endpoint output: Activity of `Cc1cc2c(ccc3ccccc32)oc1=O` . Value?
28

And the next one, `O=c1oc2ccc(I)cc2cc1Cc1ccccc1` ?
46

Another molecule: `CCCCCc1cc(OC)c2cc(Cc3ccccc3)c(=O)oc2c1`
36

Here is the next molecule: `CCCCCc1cc(O)c2cc(Cc3ccccc3O)c(=O)oc2c1`
37

Follow-up item: `Cc1cc2cc(I)ccc2oc1=O`
40

Another: `CCCCCc1cc(O)c2cc(Cc3ccccc3C)c(=O)oc2c1`
19

// next record `COc1cccc2cc(C)c(=O)oc12`
7

Now consider `COc1cccc(Cc2cc3c(OC)cc(CBr)cc3oc2=O)c1` and answer again.
18

Now this one: `CCCCC1(c2cc(OC)c3cc(Cc4ccccc4OC)c(=O)oc3c2)CCCC1`
30
